Recorded GI50 values for a group of compounds are listed next.
Test system: U-251
Assay: NCI tumour cell line growth inhibition, 48 h
The source made the active and inactive calls. No stated cut-off is given here; in the data, active = GI50 up to about 1.1 µM and inactive = higher.

Observe how each entry below is paired with its result.
COc1cc(/C=C2\C[C@H]3[C@@H]4CCc5cc(O)ccc5[C@H]4CC[C@]3(C)C2=O)cc(OC)c1OC
15.8 µM (inactive)
OC(c1ccccc1)(c1ccccc1)c1cccnc1
> 100 µM (inactive)
COc1ccc2c(c1)c(=Cc1ccc(N(C)C)cc1)c1cc(-c3ccccc3)[n+](C)n12
0.301 µM (active)
COc1ccc(/C=C/c2cc(OC)c(OC)c(OC)c2)cc1
2.61 µM (inactive)
CC(C)(C)c1cc(Cc2ccc(S(C)(=O)=O)cc2)c(O)c(C(C)(C)C)c1
15.1 µM (inactive)

Req: Name the recorded GI50 of O=C1NC(=S)NC(=O)C1=Cc1ccc(-c2ccccc2)cc1 , assay system U-251.
Resp: 54.1 µM (inactive)

Req: Name the recorded GI50 of O=S(=O)(/N=c1\[nH]c(-c2cc(O)c(O)c(O)c2)cs1)c1ccc(Cl)cc1Cl , assay system U-251.
Resp: 19 µM (inactive)

Req: Name the recorded GI50 of O=C(/C=C/c1ccc(O)c(O)c1O)OCCc1ccccc1 , assay system U-251.
Resp: 26.1 µM (inactive)

Req: Name the recorded GI50 of C/C(=N/NC(=S)Nc1ccccc1Cl)c1ccccn1 , assay system U-251.
Resp: 0.0418 µM (active)

Req: Name the recorded GI50 of CC(=O)OCC1OC(NC(=S)Nn2c(=O)[nH]c3ccccc3c2=O)C(OC(C)=O)C(OC(C)=O)C1OC(C)=O (configuration not stated) , assay system U-251.
Resp: > 100 µM (inactive)

Req: Name the recorded GI50 of CC(Oc1ccc(Cl)cc1Cl)C(=O)NN1C(=O)CC(=O)N(c2ccccc2)C1=S (configuration not stated) , assay system U-251.
Resp: 41.9 µM (inactive)

Req: Name the recorded GI50 of O=C1CC(C(COCc2ccccc2)OCc2ccccc2)CC(=O)N1 (configuration not stated) , assay system U-251.
Resp: > 100 µM (inactive)

----------
System: EKVX
Test: NCI tumour cell line growth inhibition, 48 h
Active and inactive are the calls of the source. No stated cut-off is given here; in the data, active = GI50 up to about 1.1 µM and inactive = higher.
endpointName: GI50

CCC1N2CCCCC2[C@@H]2c3[nH]c4ccccc4c3CCN12 (stereo partly drawn)
> 100 µM (inactive)

Req: Query GI50 for COc1ccc(C(=O)/C(=N/Nc2ccccc2)c2ccc(OC)cc2)cc1
Resp: > 100 µM (inactive)

Req: Query GI50 for COc1cc2c(cc1OC)c1c(OC)c(OC)cc3c1c1c2sc(=S)n1CC3
Resp: > 100 µM (inactive)

Req: Query GI50 for O=C1Nc2ccccc2C(=O)/C1=C/NC(=S)NC1CCCCC1
Resp: > 100 µM (inactive)

Req: Query GI50 for COc1cc(/C=C2\C[C@H]3[C@@H]4CCc5cc(O)ccc5[C@H]4CC[C@]3(C)C2=O)cc(OC)c1OC
Resp: 10.1 µM (inactive)

Req: Query GI50 for COc1ccc(N/N=C2\CCOc3ccc(C)cc3C2=O)cc1
Resp: 21.3 µM (inactive)

Req: Query GI50 for Cc1ccc(C)c(NC2=NC(=O)C(CC(=O)Nc3ccc(Cl)cc3Cl)S2)c1 (stereo not drawn)
Resp: > 100 µM (inactive)

Req: Query GI50 for CC(C)CCCC(C)[C@H]1CC[C@H]2[C@@H]3CC[C@H]4C[C@@H](CCC=C(c5cc(Cl)c(O)c(C(=O)O)c5)c5cc(Cl)c(O)c(C(=O)O)c5)CC[C@]4(C)[C@H]3CC[C@]12C (stereo partly drawn)
Resp: > 50 µM (inactive)

----------
Test system: HCT-15
Recorded GI50 values for a group of compounds are listed next.
// units = µM; emit number, no label

Observe how each entry below is paired with its result.
COc1c(OC/C=C(\C)CCC=C(C)C)ccc2ccc(=O)oc12
64.9
CN(CCCN=C=S)CCCN1c2ccccc2CCc2ccccc21
1.49
COc1ccc(N/N=C2\CCOc3ccc(C)cc3C2=O)cc1
5.52
CCCSc1ccc2[nH]c(N3C(=O)/C(=C/c4ccc(SC)cc4)N=C3c3ccccc3)cc2c1
22.1
CN1C2CCC1CC(CCNC(c1ccccc1)c1ccccc1)C2 (stereo unspecified)
33.7

Req: Name the recorded GI50 of O=C(N/C(=C\c1cc(Cl)ccc1Cl)c1nc2ccccc2[nH]1)c1ccccc1 , assay system HCT-15.
Resp: 24

----------
System: HT-29
Assay: NCI tumour cell line growth inhibition, 48 h
Active and inactive are the calls of the source. Cut-off read from the data, not from the text of the source: active = GI50 up to about 1.1 µM and inactive = higher.
endpointName: GI50

COP(=O)(CC(=O)C1OC(C)(C)OC1C(O)COCc1ccccc1)OC (stereo unspecified)
> 100 µM (inactive)

Req: Query GI50 for NNC(=O)c1ccccc1Nc1nc(-c2cccs2)nc2ccc(Br)cc12
Resp: 78.5 µM (inactive)

Req: Query GI50 for CCOC(=O)NN(C(=O)OCC)c1c(C)cc(C)cc1C
Resp: > 100 µM (inactive)

----------
Test system: U-251
Test: NCI tumour cell line growth inhibition, 48 h
Calls of active or inactive are those of the source. Cut-off read from the data, not from the text of the source: active = GI50 up to about 1.1 µM and inactive = higher.
Recorded GI50 values for a group of molecules are listed next.

Observe how each entry below is paired with its result.
C=C1[C@H](OC(=O)C(C)C)[C@]23CC4(O)[C@@H]5[C@@]6(C)CCC[C@]57C([C@@H]2C[C@@]1(O)[C@H](O)[C@@H]73)N4C6
> 100 µM (inactive)
[C-]#[N+]C(C)(C)C[C@H]1CC(C)C2CCC(C)C3([N+]#[C-])CCC(=C)C1[C@H]23 (some centres not stated)
1.51 µM (inactive)
COc1cc2c(cc1OC)C1=C(C=O)c3ccc(OC)c(OC)c3C(O)N1CC2 (configuration not stated)
19.2 µM (inactive)
Cc1ccc(N2C(=O)N(c3ccc(C)cc3)C3(SC=NN3C)C2=O)cc1 (configuration not stated)
> 100 µM (inactive)
COCOc1ccc(OC)cc1
> 100 µM (inactive)

Req: Name the recorded GI50 of CC1(C)CCSC(/C=C/c2ccccc2)=N1 , assay system U-251.
Resp: 17.9 µM (inactive)

Req: Name the recorded GI50 of CCCSc1ccc2[nH]c(N3C(=O)/C(=C/c4ccc(SC)cc4)N=C3c3ccccc3)cc2c1 , assay system U-251.
Resp: 27.1 µM (inactive)

Req: Name the recorded GI50 of [N-]=[N+]=Nc1nc2ccccc2c(N=[N+]=[N-])c1Cl , assay system U-251.
Resp: > 100 µM (inactive)

----------
Test system: OVCAR-8
Experiment: NCI tumour cell line growth inhibition, 48 h
The source made the active and inactive calls. Rule as the data show it: active = GI50 up to about 1.1 µM and inactive = higher.
Form entry, call: pick from class 1 for active, class 0 for inactive

Below are worked cases with known answers.
CCN(CC)/[N+]([O-])=N/OCC(C)O (stereo unspecified)
class 0
N#CC(c1ccc(O)cc1)N1CCN(C(C#N)c2ccc(O)cc2)CC1 (stereo unspecified)
class 0
Cc1cc(S(=O)(=O)/N=C(\NN)Nc2ccc(Cl)cc2)c(S)cc1Cl
class 0

Req: What classification did CC(C)[C@H]1NC(=O)[C@H]2N=C(S[C@H]2C)[C@@H]2CCCN2C(=O)[C@H](Cc2ccccc2)NC(=O)[C@@H]2CSC(=N2)[C@@H](Cc2ccccc2)NC(=O)[C@@H]2CSC1=N2 end up with in this test?
Resp: class 0

Req: What classification did C=C(C)C(=O)OC1CC2=CC(CC3(C)OC3C3OC(=O)C(=C)C13)OC2=O (stereo unspecified) end up with in this test?
Resp: class 0

Req: What classification did CCOc1cccc2[s+]snc12 end up with in this test?
Resp: class 0

Req: What classification did C#CCOC(=O)C(N)CCCNC(=N)N (stereo unspecified) end up with in this test?
Resp: class 0

Req: What classification did O=c1c2cc([N+](=O)[O-])ccc2nc2n1CCCCC2 end up with in this test?
Resp: class 0

----------
Test system: Malme-3M
Assay: NCI tumour cell line growth inhibition, 48 h
Activity calls are given as the source filed them. No stated cut-off is given here; in the data, active = GI50 up to about 1.1 µM and inactive = higher.
endpointName: GI50

Observe how each entry below is paired with its result.
O=C(CC(O)(C(F)(F)F)C(F)(F)F)C(c1ccccc1)C(O)(C(F)(F)F)C(F)(F)F (stereo unspecified)
50.4 µM (inactive)
CC1=C(C)CC2C(=O)N(c3cc(C(C)(C)C)ccc3C(C)(C)C)C(=O)C2C1 (stereo unspecified)
4.55 µM (inactive)
O=S(=O)(Cc1ccccc1)SCc1ccccc1
27.3 µM (inactive)
CCOC(=O)c1cc2cc(C)cc(C(=O)c3ccc([N+](=O)[O-])cc3)c2[nH]1
> 100 µM (inactive)
CC(=O)C1=C(C)N(c2ccc(C)cc2)C2(O)C3=C(C(=O)c4ccccc4C3=O)C(O)=CC12Cl (stereo unspecified)
10.5 µM (inactive)

Req: Query GI50 for O=C(Nc1cccc(F)c1)c1cc2ccc(O)cc2o/c1=N\c1cccc(F)c1
Resp: 4.37 µM (inactive)

Origin of values: ChEMBL document CHEMBL1201862
